Test system: Pseudomonas aeruginosa
Test: Challenge test in shampoo, number of surviving (viable) bacteria
Type: cell-based, Pseudomonas aeruginosa (ATCC 19429)
Conditions: Table 3, 125 ppm, 24 hr
observedProperty: Viable bacteria after 24 hr

Below, 5 compounds whose answers are already recorded.
compound: Cc1csc(=S)n1[O-].Cc1csc(=S)n1[O-].[Co+2] [Example 13]
assayTarget: Pseudomonas aeruginosa
observedProperty: Viable bacteria after 24 hr
assayValue: 2.1 E3
--
compound: Cc1csc(=S)n1[O-].Cc1csc(=S)n1[O-].[Zn+2] [Example 14]
assayTarget: Pseudomonas aeruginosa
observedProperty: Viable bacteria after 24 hr
assayValue: 3.3 E3
--
compound: Cc1csc(=S)n1O.Cc1csc(=S)n1O.[Zn] [ZTA]
assayTarget: Pseudomonas aeruginosa
observedProperty: Viable bacteria after 24 hr
assayValue: 6.2 E3
--
compound: Cc1csc(=S)n1[O-].Cc1csc(=S)n1[O-].Cc1csc(=S)n1[O-].[Sc+3] [Example 9]
assayTarget: Pseudomonas aeruginosa
observedProperty: Viable bacteria after 24 hr
assayValue: 2.6 E3
--
compound: Cc1csc(=S)n1O [Example 4, 3hydroxy-4-methylthiazol-2(3H)-thione]
assayTarget: Pseudomonas aeruginosa
observedProperty: Viable bacteria after 24 hr
assayValue: 1.7 E4

Query: Suppose we examine the compound Cc1csc(=S)n1[O-].Cc1csc(=S)n1[O-].[Mn+2] [Example 7] ; what Viable bacteria after 24 hr value has been reported?
Response: 2.4 E4
